- MEASUREMENT PROTOCOL: Toxicokinetics in Beagle dogs, 7 day repeat oral administration
- Assay type: in vivo
- MEASUREMENT PARAMETERS: male, Beagle, dog, plasma, po, 20 mg/kg, 20 mg/kg PO BID, Day7, Male, Subject 1, read-out: AUC (0-12 hr)
- Text: To understand its toxicokinetics and potential effect on hepatic functions, EXAMPLE 23 was orally dosed to Beagle dogs for 7 consecutive days.
EXPERIMENTAL ENDPOINT: AUC(0-t) (ng·h/mL)
Report as a plain number; the unit ng·h/mL is understood.

**Query** Bench note: what AUC(0-t) did CC(C)CN(c1ccc([C@H](C)CC(=O)O)cc1Nc1nnc(C2CC2)s1)C1CCOCC1 show?
**Result** 14900

The measurements presented in this section are drawn from patent US10899754B2.
